Tested on: full length human vWF (SEQ ID NO 7)
Experiment: dot blot KD determination and extent of binding, full length human vWF;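 also: dot blot binding of aptamers to full length human vWF across a protein titration, incubated 30 minutes at room temperature in 1x DPBS with BSA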
Conditions: Phase 3 modification; full length human vWF, dot blot, 8 point protein titration; read-out: KD
Oligonucleotides are written 5' to 3', each unit as a sugar letter and its base; * is a phosphorothioate linkage, no mark a phosphodiester; rarer units and linkages stand in square brackets, end groups in braces. Plain capitals give the bases only. [invdT] = inverted (3'-3') thymidine; d = 2'-deoxy (DNA); m = 2'-O-methyl
Record form. Attribute: Kd. Fill in for each entry.
Return type: number; implicit unit nM.

Memo: ARC1369: ARC1361 with single phosphorothioate phosphate backbone modification (mGmCmGmUdGdCdAmGmUmGmCmCmUmUmCmGmGmCdCmGdT*mGdCdGdGdTmGmCdCmUdCdCmGmUdCmAmCmGmC[invdT]; aptamer) , reported Kd: 16.3

Memo: ARC1375: ARC1361 with single phosphorothioate phosphate backbone modification (mGmCmGmUdGdCdAmGmUmGmCmCmUmUmCmGmGmCdCmGdTmGdCdGdGdTmGmC*dCmUdCdCmGmUdCmAmCmGmC[invdT]; aptamer) , reported Kd: 8.8

Memo: ARC1372: ARC1361 with single phosphorothioate phosphate backbone modification (mGmCmGmUdGdCdAmGmUmGmCmCmUmUmCmGmGmCdCmGdTmGdCdG*dGdTmGmCdCmUdCdCmGmUdCmAmCmGmC[invdT]; aptamer) , reported Kd: 23.5

Memo: ARC1377: ARC1361 with single phosphorothioate phosphate backbone modification (mGmCmGmUdGdCdAmGmUmGmCmCmUmUmCmGmGmCdCmGdTmGdCdGdGdTmGmCdCmU*dCdCmGmUdCmAmCmGmC[invdT]; aptamer) , reported Kd: 7.4
